Experiment: Stability in human plasma
Conditions: after 4 hours, 37° C.
measured.metric: residual percentage in HUMAN PLASMA (%)

[[record]]
compound = "FC(F)c1nnc(-c2ccc(Cn3cc(-c4ccc(NC5=NCCN5)cc4)cn3)cc2)o1"
measured_metric = "residual percentage in HUMAN PLASMA"
observed_result = 80

[[record]]
compound = "CC(c1ccc(-c2nnc(C(F)F)o2)cc1)n1cc(-c2ccc(N)nc2)nn1 (centres unmarked)"
measured_metric = "residual percentage in HUMAN PLASMA"
observed_result = 92

[[record]]
compound = "FC(F)c1nnc(-c2ccc(Cn3cc(-c4ccc5[nH]c(N6CCOCC6)nc5c4)nn3)cc2)o1"
measured_metric = "residual percentage in HUMAN PLASMA"
observed_result = 88

[[record]]
compound = "FC(F)c1nnc(-c2ccc(Cn3cnc(-c4ccc(NC5=NCCN5)cc4)c3)cc2)o1"
measured_metric = "residual percentage in HUMAN PLASMA"
observed_result = 92

[[record]]
compound = "Nc1ccc(-c2cn(Cc3ccc(-c4nnc(C(F)F)o4)cn3)cn2)cn1"
measured_metric = "residual percentage in HUMAN PLASMA"
observed_result = 82

[[record]]
compound = "Nc1ccc(-c2cn(Cc3ccc(-c4nnc(C(F)F)o4)c(F)c3F)nn2)cn1"
measured_metric = "residual percentage in HUMAN PLASMA"
observed_result = 84

[[record]]
compound = "O=C(c1cccc(-c2nnn(Cc3ccc(-c4nnc(C(F)F)o4)cc3F)n2)c1)N1CCOCC1"
measured_metric = "residual percentage in HUMAN PLASMA"
observed_result = 74

[[record]]
compound = "O=C(Nc1cccc(-c2cn(Cc3ccc(-c4nnc(C(F)F)o4)cn3)cn2)c1)N1CCOCC1"
measured_metric = "residual percentage in HUMAN PLASMA"
observed_result = 80

[[record]]
compound = "CCC[C@H](c1ccc(-c2nnc(C(F)F)o2)cc1)n1cc(-c2ccc(N)nc2)nn1"
measured_metric = "residual percentage in HUMAN PLASMA"
observed_result = 60

[[record]]
compound = "CNc1ccc2cc(-c3cn(Cc4ccc(-c5nnc(C(F)F)o5)cn4)nn3)ccc2n1"
measured_metric = "residual percentage in HUMAN PLASMA"
observed_result = 95

[[record]]
compound = "FC(F)c1nnc(-c2ccc(Cn3cc(-c4ccc(NC5=NCCN5)cc4)cn3)nc2)o1"
measured_metric = "residual percentage in HUMAN PLASMA"
observed_result = 89

[[record]]
compound = "COc1ncccc1-c1cn(Cc2ccc(-c3nnc(C(F)F)o3)cn2)nn1"
measured_metric = "residual percentage in HUMAN PLASMA"
observed_result = 77

[[record]]
compound = "C[C@@H](c1ccc(-c2nnc(C(F)F)o2)cc1)n1cc(-c2ccc(N)nc2)nn1"
measured_metric = "residual percentage in HUMAN PLASMA"
observed_result = 91

[[record]]
compound = "NC(=O)c1cccc(-c2nnn(Cc3ccc(-c4nnc(C(F)F)o4)cc3F)n2)c1"
measured_metric = "residual percentage in HUMAN PLASMA"
observed_result = 89

[[record]]
compound = "Cc1ncccc1-c1cn(Cc2c(F)cc(-c3nnc(C(F)F)o3)cc2F)nn1"
measured_metric = "residual percentage in HUMAN PLASMA"
observed_result = 84

[[record]]
compound = "Nc1nc2cc(-c3nnn(Cc4ccc(-c5nnc(C(F)F)o5)cn4)n3)ccc2o1"
measured_metric = "residual percentage in HUMAN PLASMA"
observed_result = 76

[[record]]
compound = "FC(F)c1nnc(-c2ccc(Cn3cc(-c4ccc(NC5=NCCN5)cc4)nn3)cc2)o1"
measured_metric = "residual percentage in HUMAN PLASMA"
observed_result = 89

[[record]]
compound = "Nc1ncnc2cc(-c3cn(Cc4ccc(-c5nnc(C(F)F)o5)cc4)nn3)ccc12"
measured_metric = "residual percentage in HUMAN PLASMA"
observed_result = 80

[[record]]
compound = "FC(F)c1nnc(-c2ccc(Cn3nnc(-c4csc5ccccc45)n3)cc2)o1"
measured_metric = "residual percentage in HUMAN PLASMA"
observed_result = 91

[[record]]
compound = "O=C(Nc1cccc(-c2cn(Cc3ccc(-c4nnc(C(F)F)o4)cn3)nn2)c1)N1CCOCC1"
measured_metric = "residual percentage in HUMAN PLASMA"
observed_result = 93

[[record]]
compound = "O=C(Nc1cc(-c2nnn(Cc3ccc(-c4nnc(C(F)F)o4)cn3)n2)ccc1O)N1CCOCC1"
measured_metric = "residual percentage in HUMAN PLASMA"
observed_result = 87

[[record]]
compound = "Cn1c(N)nc2cc(-c3nnn(Cc4ccc(-c5nnc(C(F)F)o5)cc4)n3)ccc21"
measured_metric = "residual percentage in HUMAN PLASMA"
observed_result = 83

[[record]]
compound = "O=C(Nc1cccc(-c2cn(Cc3c(F)cc(-c4nnc(C(F)F)o4)cc3F)nn2)c1)N1CCOCC1"
measured_metric = "residual percentage in HUMAN PLASMA"
observed_result = 62

[[record]]
compound = "O=C1Nc2ccc(-c3cn(Cc4ccc(-c5nnc(C(F)F)o5)cn4)nn3)cc2C12CCNC2 (single isomer, unassigned) [compound 274]"
measured_metric = "residual percentage in HUMAN PLASMA"
observed_result = 83

[[record]]
compound = "CC(c1ccc(-c2nnc(C(F)F)o2)c(F)c1)n1cc(-c2ccc(N)nc2)nn1 (centres unmarked)"
measured_metric = "residual percentage in HUMAN PLASMA"
observed_result = 94

[[record]]
compound = "CCNc1nc2ccc(-c3cn(Cc4ccc(-c5nnc(C(F)F)o5)cn4)nn3)cc2[nH]1"
measured_metric = "residual percentage in HUMAN PLASMA"
observed_result = 84

[[record]]
compound = "O=C1NCc2ccc(-c3nnn(Cc4ccc(-c5nnc(C(F)F)o5)cn4)n3)cc21"
measured_metric = "residual percentage in HUMAN PLASMA"
observed_result = 80

[[record]]
compound = "COc1ncccc1-c1cn(Cc2ccc(-c3nnc(C(F)F)o3)cc2)nn1"
measured_metric = "residual percentage in HUMAN PLASMA"
observed_result = 92

[[record]]
compound = "O=C1Nc2ccc(-c3cn(Cc4ccc(-c5nnc(C(F)F)o5)cn4)nn3)cc2[C@@]12CCNC2 (single isomer, unassigned)"
measured_metric = "residual percentage in HUMAN PLASMA"
observed_result = 83

